Test system: HeLa-Zellen
assay protocol: cells
Assay type: cell-based
measurement conditions: Homo sapiens, concentration at which 50 % of the cells die, relative to untreated control cells
pIC50: −log10 of the molar value.
Parameter: pIC50. Scope: all listed entries.

compound	assay target	pIC50
CCCCN(CCC(=O)OCC)C(C)=O [IR 3535, Ethyl-3-[(acetyl)(butyl)amino]propanoat]	HeLa-Zellen	4.90
CCN(CC)C(=O)c1cccc(C)c1	HeLa-Zellen	4.91
